Hello, the source for this data is patent US20200222474A1, in case you need it.

Listed here are compounds together with their documented Transcripts per million (rpm).
- System: L. acidophilus NCFM
- assay-details: RNA-seq transcriptional analysis of L. acidophilus NCFM growing on plant glycosides
- Assay type: cell-based, Lactobacillus acidophilus
- assay-setup: gene LBA0543 (Hypothetical protein)
property: Transcripts per million (rpm)

smi=OC[C@H]1O[C@@H](O[C@H]2[C@H](O)[C@@H](O)[C@@H](O)O[C@@H]2CO)[C@H](O)[C@@H](O)[C@H]1O obs_value=345.9
smi=OCc1ccccc1O[C@@H]1O[C@H](CO)[C@@H](O)[C@H](O)[C@H]1O obs_value=266.3
smi=O=c1ccc2cc(O[C@@H]3O[C@H](CO)[C@@H](O)[C@H](O)[C@H]3O)c(O)cc2o1 obs_value=278.7
